Measured values drawn from the supplement of paper PMC11061612 for this set.

Recorded combination Emax for the following compounds
Tested on: KGN (Other Solid Carcinomas)
Assay: combination Emax (second highest fraction inhibited in the dose matrix, 72 h); higher = more inhibition; extreme values may be limits of the assay
Response field accepts a number only; no unit should be typed.

Known results for compounds:
[
  {
    "Compound": "Cc1c2c(nn1C)CSCc1cc(n(C)n1)CSc1cc(c3ccccc3c1)OCCCc1c(C(=O)O)n(C)c3c-2c(Cl)ccc13 [AZD5991] + CS(=O)(=O)CCNCc1ccc(-c2ccc3ncnc(Nc4ccc(OCc5cccc(F)c5)c(Cl)c4)c3c2)o1 [Lapatinib] (first compound max 1 µM, 7x7, partner max 10 µM)",
    "Measured parameter": "combination Emax",
    "Observed": 0.454
  },
  {
    "Compound": "COc1cccc(OCCCN)c1-c1cc(Nc2cnc(C#N)cn2)n[nH]1 [Prexasertib] + CN(C)CCCOc1ccc(-c2ccc3ncc4c(c3c2)n(C2CCOCC2)c(=O)n4C)cn1 [AZD0156] (first compound max 1 µM, 7x7, partner max 1 µM)",
    "Measured parameter": "combination Emax",
    "Observed": 0.753
  }
]

Query: For KGN (Other Solid Carcinomas), give combination Emax of the listed compound: CN(C)CCCOc1ccc(-c2ccc3ncc4c(c3c2)n(C2CCOCC2)c(=O)n4C)cn1 [AZD0156] + C[C@@H]1COCCN1C2=NC(=NC(=C2)C3(CC3)[S@](=N)(=O)C)C4=C5C=CNC5=NC=C4 [AZD6738] (first compound max 1 µM, 7x7, partner max 10 µM)
Reply: 0.848

Query: For KGN (Other Solid Carcinomas), give combination Emax of the listed compound: Cc1c2c(nn1C)CSCc1cc(n(C)n1)CSc1cc(c3ccccc3c1)OCCCc1c(C(=O)O)n(C)c3c-2c(Cl)ccc13 [AZD5991] + CN(C)CCCOc1ccc(-c2ccc3ncc4c(c3c2)n(C2CCOCC2)c(=O)n4C)cn1 [AZD0156] (first compound max 1 µM, 7x7, partner max 1 µM)
Reply: 0.425
